Assay: Elimination rate constant in Beagle dog at 2.5 mg/kg, iv
Assay type: ADME, organism-based, Canis lupus familiaris
Set-up: dose 2.5 mg/kg, route intravenous
Conditions: in vivo
measured_attribute: k el (s⁻¹)
Numeric only. Scale: s⁻¹

Value of k el reported for the compound C[C@@H]1CN(c2c(F)c(F)c3c(=O)c(C(=O)O)cn(C4CC4)c3c2F)C[C@H](C)N1 is 4.72e-05

====

Assay: Mean residence time (0 to infinity) in Beagle dog at 2.5 mg/kg, iv
Format: ADME, organism-based, Canis lupus familiaris
Parameters: dose 2.5 mg/kg, route intravenous
Conditions: in vivo
measured_attribute: MRT inf (h)
Numeric only. Scale: h

Value of MRT inf reported for the compound C[C@@H]1CN(c2c(F)c(F)c3c(=O)c(C(=O)O)cn(C4CC4)c3c2F)C[C@H](C)N1 is 5.13

====

Assay: Mean residence time (0 to infinity) in Beagle dog at 2.5 mg/kg, im
Type: ADME, organism-based, Canis lupus familiaris
Design: dose 2.5 mg/kg, route intramuscular
Conditions: in vivo
measured_attribute: MRT inf (h)
Numeric only. Scale: h

Value of MRT inf reported for the compound C[C@@H]1CN(c2c(F)c(F)c3c(=O)c(C(=O)O)cn(C4CC4)c3c2F)C[C@H](C)N1 is 5.69

Each recorded value in this set is attributed to ChEMBL document CHEMBL1649501.
